# Test system: SW-620
# Assay Details: cells
# Test Context: Homo sapiens, SW-620, 48 h
# Description: Antiproliferative activity against human SW620 cells after 48 hrs by MTT assay
The compounds listed here are annotated with their IC50.
Express the result in µM but write the number alone.

Please review the following examples before continuing.
>>> value_observed("O=C(c1ccc2[nH]c(-c3ccccc3)nc2c1)N1CCC2(CC1)CC(=O)N(c1ccc(C(F)(F)F)cc1)C2")
2.05
>>> value_observed("Cc1cc(C(=O)N2CCC3(CC2)CC(=O)c2nn(C(C)(C)C)cc2O3)cc2cn[nH]c12")
3.19

# input for lookup
Exercise: What value of IC50 has been recorded for this entry: O=C(c1ccc2[nH]c(-c3ccncc3)nc2c1)N1CCC2(CC1)CC(=O)N(c1ccc(C(F)(F)F)cc1)C2
Key: 7.24
